Assay: modulators of MEP2-GFP levels in yeast, confirmation, S. cerevisiae, flow cytometry GFP, cherry picks (AID 2272);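 note: ratio of well signal to plate DMSO mean so 100% equals DMSO level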
Conditions: S. cerevisiae MEP2-GFP strain, 3 h, at 10 µM, active compounds read high
parameter_measured: GFP response vs DMSO (%)

>>> endpoint_result("CC(=O)c1ccc(N2CCN(S(=O)(=O)c3ccc4c(c3)CC(C)N4C(C)=O)CC2)cc1 (centres undefined)")
103
>>> endpoint_result("CCOC(=O)CNc1c(-c2ccccc2)nc2ccc(Cl)cn12")
97.5
>>> endpoint_result("Cc1sc(NC(=O)c2cccs2)nc1-c1ccccc1")
109
>>> endpoint_result("COc1ccc(NC(=S)NCCCCCC(=O)C[N+](=O)[O-])cc1")
98.3
>>> endpoint_result("Cc1cc(O)ccc1NC(=O)c1ccccc1")
102
>>> endpoint_result("O=c1cc(-c2c(F)c(F)c(F)c(F)c2F)oc2c(F)c(F)c(F)c(F)c12")
131
>>> endpoint_result("COc1ccc(/C=N\\NC(=O)c2cc(OCC(F)(F)F)ccc2OCC(F)(F)F)cc1")
102
>>> endpoint_result("CCCCCCNC(=O)c1c(O)c2cccc3c2n(c1=O)CCC3")
107
>>> endpoint_result("COc1ccc(-c2cc(C(F)(F)F)nc(N3CCOCC3)n2)cc1OC")
126
>>> endpoint_result("O=C(N/N=C/c1ccccc1Cl)c1ccc(F)cc1")
96.8
>>> endpoint_result("Cc1ccc(-c2nnn(CC(=O)N(CC(=O)NC3CCCC3)c3ccc(F)cc3)n2)o1")
99
>>> endpoint_result("O=c1[nH]c(CCl)nc2cc(-c3ccc(Cl)cc3)sc12")
107
>>> endpoint_result("CCOC(=O)C(=CNNc1ccccc1)C(=O)OCC")
113
>>> endpoint_result("CN1C(=O)/C(=N\\OC(=O)c2cccc3ccccc23)c2ccccc21")
110
>>> endpoint_result("O=C1ON=C(c2ccccc2)/C1=C\\c1ccco1")
124
>>> endpoint_result("O=C1Nc2ccccc2C(=O)C1(Cl)Cc1ccccc1 (centres undefined)")
101
>>> endpoint_result("Cc1ccc(S(=O)(=O)c2ncccc2[N+](=O)[O-])cc1")
105
>>> endpoint_result("O=C(Nc1nc2ccc(F)cc2s1)c1ccccn1")
116
>>> endpoint_result("CCN(Cc1ccccc1)S(=O)(=O)c1ccc(C(=O)Nc2nnc(C3CC3)o2)cc1")
99.5
>>> endpoint_result("Cc1ccc(NC(=O)c2ccc(Cl)c(N3C(=O)C=CC3=O)c2)cc1")
129
>>> endpoint_result("CC(=O)Oc1oc(-c2ccccc2)nc1C=Nc1ccc(N(C)C)cc1")
95.7
>>> endpoint_result("COc1ccc(-c2nnc(NC(=O)c3ccc(S(=O)(=O)N4COCC4(C)C)cc3)o2)cc1")
103
>>> endpoint_result("O=C(O)CSC1CC(=O)N(c2ccc(Cl)c(Cl)c2)C1=O (centres undefined)")
101
>>> endpoint_result("O=[N+]([O-])c1cc(C(F)(F)F)ccc1NCCc1ccccn1")
102
>>> endpoint_result("O=C(O)c1ccccc1C(=O)N1CCN(c2cccc(Cl)c2)CC1")
97.5
>>> endpoint_result("NC(=O)c1ccc(Oc2ccc(-c3nnco3)cc2)c([N+](=O)[O-])c1")
100
>>> endpoint_result("C=CCOc1ccc(/C=C2\\N=C(C)OC2=O)cc1OC")
119
>>> endpoint_result("Cc1ccccc1N1C(=O)c2sc3nc4c(c(=O)n3c2C1=O)CCC4")
99
>>> endpoint_result("CCC1CCCCN1S(=O)(=O)c1ccc(C(=O)Nc2nnc(-c3ccccc3Cl)o2)cc1 (centres undefined)")
102
